Where do these numbers come from? They come from patent US12723255B2.

- assay_overview: high-throughput enzyme assay with crude bacterial extract
- Assay type: biochemical
- condition_notes: relative to wild-type RdpA
Lab note: compare Replicate 2 quizalofop-P activity with 100, writing criterion met if less and criterion not met if equal or more.

As a guide, the following entries are already answered.
MON-HT53: engineered oxygenase protein, amino acid sequence SEQ ID NO:7 (protein) MHAALSPLSQRFERIAVQPLTGVLGAEITGVDLREPLSDSTWNEILDAFHTYQVIYFPGQAITNEQHIAFSRRFGPVDPVPLLKSIEGYPEVQMIRREANESGRVIGDDWHSDSTFLDAPPAAVVMRAIDVPEHGGDTGFLSMYTAYDALSDGLKKLISGLNVVHSATRVFGSLYQAQNRRFSNTSVKVMDVDAGDRETVHPLVVTHPGSGRKGLYVNQVYCQRIEGMSEKESEPLLSFLFAHATKPEFTCRVRWKKDQVLVWDNLCTMHYAINDYHGQTRILHRTTVGGVRPAR : criterion not met
MON-HT52: engineered oxygenase protein, amino acid sequence SEQ ID NO:4 (protein) MHAALSPLSQRFERIAVQPLTGVLGAEITGVDLREPLDDSTWNEILDAFHTYQVIYFPGQAITNEQQIAFSRRFGPVDPVPLLKSIEGYPEVQMIRREANESGRVIGDDWHTDSTFLDAPPAAVVMRAIDVPEHGGDTGFLSMYTAYDALSDGLKKLISGLNVVHSATRVFGSLYQAQNRRFSNTSVKVMDVDAGDRETVHPLVVTHPGSGRKGLYVNQVYCQRIEGMSEKESEPLLSFLFAHATKPEFTCRVRWKKDQVLVWDNLCTMHYAINDYHGQTRILHRTTVGGVRPAR : criterion met
MON-HT54: engineered oxygenase protein, amino acid sequence SEQ ID NO:9 (protein) MHAALSPLSQRFERIAVQPLTGVLGAEITGVDLREPLDDSTWNEILDAFHTYQVIYFPGQAITNEQHIAFSRRFGPVDPVPLLKSIEGYPEVQMIRREANESGRVLGDDWHTDSTFLDAPPAAVVMRAIDVPEHGGDTGFLSMYTAYDALSDGLKKLISGLNVVHSATRVFGSLYQAQNRRFSNTSVKVMDVADGDRETVHPLVVTHPGSGRKGLYVNQVYCQRIEGMSEKESEPLLSFLFAHATKPEFTCRVRWKKDQVVVWDNLCTMHYAINDYHGQTRILHRTTVGGVRPAR : criterion not met

Read the next record carefully.
I wonder whether MON-HT51: engineered oxygenase protein, amino acid sequence SEQ ID NO:1 (protein) MHAALSPLSQRFERIAVQPLTGVLGAEITGVDLREPLSDSTWNEILDAFHTYQVIYFPGQAITNEQHIAFSRRFGPVDPVPLLKSIEGYPEVQMIRREANESGRVIGDDWHTDSSFLDAPPAAVVMRAIDVPEHGGDTGFLSMYTAYDALSDGLKKLISGLNVVHSATRVFGSLYQAQNRRFSNTSVKVMDVADGDRETVHPLVVTHPGSGRKGLYVNQVYCQRIEGMSEKESEPLLSFLFAHATKPEFTCRVRWKKDQVLVWDNLCTMHYAINDYHGQTRILHRTTVGGVRPAR has Replicate 2 quizalofop-P activity below 100. Can you tell?
criterion not met
